target: P. falciparum apicoplast DNA polymerase (Pf-apPOL) (Plasmodium falciparum); assay: Fluorescence-based high-throughput DNA polymerase assay (molecular beacon), primary screen and dose-response; format: biochemical; settings: DRC-2; 40'; concentration 20
measure: % inhibition Apol 40' (%)
Field format: number, assumed %, no unit text.

compound: Cc1ccc(CCNC(=O)c2cnn3c(O)c(Cc4ccccc4F)c(C)nc23)cc1 [KU0097142]
system under test: P. falciparum apicoplast DNA polymerase (Pf-apPOL) (Plasmodium falciparum)
% inhibition Apol 40' [%]: 54

compound: O=[N+]([O-])/C=C/c1ccc(-c2ccc(Br)cc2)o1 [Molecule 31, O=N(=O)/C=C/c1ccc(o1)c1ccc(cc1)Br]
system under test: P. falciparum apicoplast DNA polymerase (Pf-apPOL) (Plasmodium falciparum)
% inhibition Apol 40' [%]: 53

We next turn to a different compound, shown below.
Asked: Query the reported % inhibition Apol 40' for P. falciparum apicoplast DNA polymerase (Pf-apPOL) (Plasmodium falciparum); item: COc1ccc(-c2cc(=O)c3cc(O)ccc3o2)cc1OC [KU0193655]
Given back: 29

* * *

Target: P. falciparum apicoplast DNA polymerase (Pf-apPOL) (Plasmodium falciparum, UniProt Q8ILY1)
Sequence (Q8ILY1 entry or part of it): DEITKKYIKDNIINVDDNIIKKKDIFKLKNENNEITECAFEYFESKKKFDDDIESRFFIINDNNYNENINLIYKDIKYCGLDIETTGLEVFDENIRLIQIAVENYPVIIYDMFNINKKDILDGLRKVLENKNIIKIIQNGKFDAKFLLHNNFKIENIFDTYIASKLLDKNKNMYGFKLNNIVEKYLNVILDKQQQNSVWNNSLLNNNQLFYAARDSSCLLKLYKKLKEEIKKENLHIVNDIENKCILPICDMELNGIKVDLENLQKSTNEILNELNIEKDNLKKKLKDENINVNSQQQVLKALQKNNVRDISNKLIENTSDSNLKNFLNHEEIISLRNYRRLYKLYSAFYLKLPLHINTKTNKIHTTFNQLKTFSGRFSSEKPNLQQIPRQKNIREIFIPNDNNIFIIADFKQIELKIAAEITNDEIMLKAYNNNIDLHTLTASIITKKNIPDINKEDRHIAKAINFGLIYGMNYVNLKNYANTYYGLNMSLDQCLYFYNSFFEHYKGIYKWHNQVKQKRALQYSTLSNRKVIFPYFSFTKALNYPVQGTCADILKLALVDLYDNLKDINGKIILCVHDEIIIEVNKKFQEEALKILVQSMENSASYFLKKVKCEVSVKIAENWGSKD
Assay: Fluorescence-based high-throughput DNA polymerase assay (molecular beacon), primary screen and dose-response;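 note: compound concentration given in µM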
Type: biochemical
Conditions: DRC-2; 40'; concentration 40
Excerpt: The HT assay employs a molecular beacon, a stem-loop DNA template with a Cy3 dye and the Black Hole Quencher on the 3′ and 5′ ends of the DNA, respectively. Pf-apPOL concentration is based on a calculated absorptivity of ε280 = 56750 M^−1 cm^−1. […] To identify apPOL inhibitors we utilised our previously developed high-throughput DNA polymerase assay. […] The assay accurately recapitulates the kinetic behaviour of apPOL, as measured through more conventional low-throughput gel-based assays. […]
Recorded % inhibition Apol 40' values for a group of compounds are listed next.
Field format: number, assumed %, no unit text.

Worked examples, 3 compounds total:
compound: COC(=O)c1sc(-c2ccc(C(C)(C)C)cc2)cc1NC(=O)CCC(=O)O
measure: % inhibition Apol 40'
measurement units: %
number: 72
--
compound: COCC(=O)Nc1c(-c2cccc(F)c2)nc2cc(C)ccn12
measure: % inhibition Apol 40'
measurement units: %
number: 69
--
compound: COc1ccc2c(c1)C(c1ccccc1OC)CC(=O)O2 (stereo not shown)
measure: % inhibition Apol 40'
measurement units: %
number: 72

Asked: // returns reported % inhibition Apol 40' for input `O=C(Nc1ccc2c(c1)Cc1cc(NC(=O)c3ccco3)ccc1-2)c1ccco1`
Given back: 69

Asked: // returns reported % inhibition Apol 40' for input `CN(C)S(=O)(=O)Oc1ccc(-c2noc(-c3ccc(Oc4cc(Cl)cc(Cl)c4)o3)n2)cc1`
Given back: 65

Asked: // returns reported % inhibition Apol 40' for input `O=C(Nc1cccc(Cl)c1)Nc1nnc(-c2ccncc2)s1`
Given back: 71

Asked: // returns reported % inhibition Apol 40' for input `CCCCc1ccc(NC(=O)CSc2nc(O)c(C#N)c(C3CCCCC3)n2)c(C)c1`
Given back: 72

Asked: // returns reported % inhibition Apol 40' for input Cc1cccc(NC(=O)Cn2ccc3c(=O)[nH]ccc32)c1C [Molecule 11, O=C(Cn1ccc2c1cc[nH]c2=O)Nc1cccc(c1C)C]
Given back: 69

Asked: // returns reported % inhibition Apol 40' for input `O=C1C(=Cc2ccncc2)Oc2c1ccc1c2CN(Cc2ccc3c(c2)OCO3)CO1`
Given back: 39

Asked: // returns reported % inhibition Apol 40' for input `COc1ccc(-c2cc3nc4c(c(=O)n3[nH]2)CCN(C(=O)CCc2ccccc2)C4)cc1`
Given back: 57
